Consider the following variants and their measured self-cleavage readings.
B1: HDV Ribozyme (parent)
chain: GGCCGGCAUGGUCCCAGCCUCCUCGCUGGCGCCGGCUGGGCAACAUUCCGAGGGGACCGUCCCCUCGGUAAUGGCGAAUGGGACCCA

variants of: B1; assay: self-cleavage, relative activity (ratio to wild type); higher = more cleavage; co-transcriptional
MEASURE: self-cleavage

> print(dat)
       change  experimental.value
 1  G35C G81U              0.0739
 2  G59A A70C               0.982
 3  G34C A45C               0.107
 4  U23C G67A               0.927
 5  C33G C49A               0.119
 6  G38A C85U               0.128
 7  C18A G29U               0.821
 8   C3U A45G               0.607
 9  A42G C85G               0.522
10  C48U G59C                1.23
11  G38A C49U               0.119
12   C7U G53U                1.09
13  C44U U47C                0.54
14  G11A G50C               0.439
15  G25U A70C               0.237
16  C15A A43U               0.212
17  C49G C63A               0.489
18  G31C G34U               0.191
19  C22A G52C               0.305
20  A71U A78G                0.59
21  C58A G74U               0.554
22  C22U U46G               0.192
